target under test: T1, CEACAM5 (CD66e) on tumour cells (human, UniProt P06731 35-685, glycosylated (natural, as on tumour cells))
T1 construct: whole, on cells; One molecule for CEACAM5 on all three cell lines; the cell line is named under assay; also called natural CEACAM5 antigen; Lovo cells
T1 sequence (looked up): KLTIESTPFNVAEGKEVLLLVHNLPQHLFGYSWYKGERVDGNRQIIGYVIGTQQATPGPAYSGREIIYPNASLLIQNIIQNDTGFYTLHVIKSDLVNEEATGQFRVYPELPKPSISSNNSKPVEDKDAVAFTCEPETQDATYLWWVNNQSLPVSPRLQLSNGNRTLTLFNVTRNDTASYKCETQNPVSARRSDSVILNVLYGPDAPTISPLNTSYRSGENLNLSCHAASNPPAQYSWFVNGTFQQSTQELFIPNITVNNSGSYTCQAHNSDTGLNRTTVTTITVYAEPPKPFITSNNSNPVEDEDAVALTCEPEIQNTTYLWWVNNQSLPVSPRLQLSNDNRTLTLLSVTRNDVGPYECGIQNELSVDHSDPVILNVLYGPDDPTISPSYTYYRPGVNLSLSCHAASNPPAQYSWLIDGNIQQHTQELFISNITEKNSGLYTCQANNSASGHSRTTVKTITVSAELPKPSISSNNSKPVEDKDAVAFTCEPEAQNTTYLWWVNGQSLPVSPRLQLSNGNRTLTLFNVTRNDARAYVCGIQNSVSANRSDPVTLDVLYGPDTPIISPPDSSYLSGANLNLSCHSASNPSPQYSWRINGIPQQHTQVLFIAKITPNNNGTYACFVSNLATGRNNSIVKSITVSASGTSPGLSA
test summary: competition by flow cytometry on KATO3 cells; competitor mouse M19 (m2F4) at 1 µg/ml, detected with anti-mouse IgG Fc-APC
binders and their reported IC50
Respond with the bare value in µg/mL.

Consider the worked cases shown below.
binder	IC50, µg/mL
Humanized antibody hAb-010 (antibody, V domains shown, also called hM19-8) VH: EVQLVESGGGLVQPGGSLRLSCAASGFTFTDYYMDWVRQAPGKALEWVGFIRNKVNGDTTEYAASVKGRFTISRDDSKNSLYLQMNSLKTEDTAVYYCARDKGIAYYFDYWGQGTLVTVSS VL: EIVLTQSPATLSASPGERATLSCRASSSVSYIHWYQQKPGQSPRPLIYGTSNRATGVPARFSGSGSGTDFTLTISSLEPEDAAVYYCQQWSSNLSTFGGGTKVEIK	2.3
Humanized antibody hAb-016 (antibody, V domains shown, also called hM19-14) VH: EVQLVESGGGLVQPGGSLRLSCAASGFTFTDYYMDWVRQAPGKALEWVGFTRNKVNGDTTEYAASVKGRFTISRDDSKNSLYLQMNSLKTEDTAVYYCARDKGIAYYFDYWGQGTLVTVSS VL: EIVLTQSPGTLSASPGERATLSCRASSSVSYIHWYQQKPGQSPRPLIYGTSNLASGVPDRFSGSGSGTDFTLTISRLEPEDAAVYYCQQWSSNLSTFGGGTKVEIK	6.4
Humanized antibody hAb-017 (antibody, V domains shown, also called hM19-15) VH: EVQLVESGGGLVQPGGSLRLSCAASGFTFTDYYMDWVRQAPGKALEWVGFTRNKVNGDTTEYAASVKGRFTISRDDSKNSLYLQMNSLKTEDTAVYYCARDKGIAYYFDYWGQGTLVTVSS VL: EIVLTQSPATLSASPGERATLSCRASSSVSYIHWYQQKPGQSPRPLIYGASNLASGVPARFSGSGSGTDFTLTISSLEPEDAAVYYCQQWSSNLSTFGGGTKVEIK	4.5
Humanized antibody hAb-009 (antibody, V domains shown, also called hM19-7) VH: EVQLVESGGGLVQPGGSLRLSCAASGFTFTDYYMNWVRQAPGKALEWLGFIRNKVNGDTTEYAASVKGRFTISRDDSKNSLYLQMNSLKTEDTAVYYCARDKGIAYYFDYWGQGTLVTVSS VL: EIVLTQSPATLSASPGERATLSCRASQSVSYIHWYQQKPGQSPRPWIHGTSNLATGVPARFSGSGSGTDFTLTISSLEPEDAAVYYCQQWSSNLSTFGGGTKVEIK	2.7
Humanized antibody hAb-006 (antibody, V domains shown, also called hM19-4) VH: EVQLVESGGGLVQPGGSLRLSCAASGFTFTDYYMNWVRQAPGKGLEWLGFIRNKVNGDTTEYSASVKGRFTISRDISKNSLYLQMNSLKTEDTAVYYCARDKGIAYYFDYWGQGTLVTVSS VL: DIVLSQSPGTLSLSPGERATLSCRASSSVSYIHWYQQKPGQAPRPWIHGTSNLASGIPDRFSGSGSGTDYTLTISRLEPEDFAVYYCQQWSSNLSTFGGGTKVEIK	6.9

Output measured IC50 for this item: Humanized antibody hAb-003 (antibody, V domains shown, also called hM19-1) VH: EVQLVESGGGLVQPGGSLRLSCAASGFTFTDYFMNWVRQAPGKALEWVGQMRNKVNGDTTEYAESVEGRFTISRDDSKNSLYLQMNSLKTEDTAVYYCARDKGIAYYFDYWGQGTLVTVSS VL: DIQMTQSPSSLSASVGDRVTITCRASSSVSYIHWYQQKPGKSPKPLIYGTSNLASGVPSRFSGSGSGTDFTLTISSLQPEDAATYYCQQWSSNLSTFGQGTKLEIK
3.9

Output measured IC50 for this item: Humanized antibody hAb-013 (antibody, V domains shown, also called hM19-11) VH: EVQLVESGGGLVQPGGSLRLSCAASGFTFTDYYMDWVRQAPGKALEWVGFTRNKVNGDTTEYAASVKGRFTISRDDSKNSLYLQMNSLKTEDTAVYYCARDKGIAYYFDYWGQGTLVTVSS VL: QIVLTQSPATLSASPGERATLSCRASSSVSYIHWYQQKPGQSPRPLIYGTSNLASGVPARFSGSGSGTDFTLTISSLEPEDAAVYYCQQWSSNLSTFGGGTKVEIK
5.2
